assay-explanation: yeast display, Sf9 membrane polyspecificity reagent, FACS + sequencing; frameworks hold sequencing errors

>  <sequence>
QVQLVESGGGLVQAGGSLRLSCAASGSIFYNYGMGWYRQAPGKERELVAAIRASGDSTYYADSVKGRFTISRDNAKNTVYLQMNSLKPEDTAVYYCAARPNQSYYGLYFYWGQGTQVTVSS

>  <polyreactivity (PSR sort gate)>
low polyreactivity

$$$$
>  <sequence>
QVQLVESGGGLVQAGGSLRLSCAASGSIFSGNAMGWYRQAPGKERELVAAITSGGSTYYADSVKGRFTISRDNAKNTVYLQMNSLKPEDTAVYYCAAVWYQYYYDRRHDYWGQGTQVTVSS

>  <polyreactivity (PSR sort gate)>
low polyreactivity

$$$$
